details: in acetonitrile, 318.15 K
Observation Type: solubility (mole fraction)
Would you mind answering with just the numeric figure?

Q: GET /values?readout=solubility (mole fraction)&item= O=C(O)CNC(=O)C(=O)NCC(=O)O
Result: 2.01e-05

====

conditions: in acetonitrile, 323.15 K
Observation Type: solubility (mole fraction)
Would you mind answering with just the numeric figure?

Q: GET /values?readout=solubility (mole fraction)&item= O=C(O)CNC(=O)C(=O)NCC(=O)O
Result: 2.73e-05

====

conditions: in n-butanol, 328.15 K
Observation Type: solubility (mole fraction)
Would you mind answering with just the numeric figure?

Q: GET /values?readout=solubility (mole fraction)&item= O=C(O)CNC(=O)C(=O)NCC(=O)O
Result: 0.00012

====

details: in DMF, 293.15 K
Observation Type: solubility (mole fraction)

Q: GET /values?readout=solubility (mole fraction)&item= O=C(O)CNC(=O)C(=O)NCC(=O)O
Result: 0.0292

====

conditions: in THF, 333.15 K
Observation Type: solubility (mole fraction)
Would you mind answering with just the numeric figure?

Q: GET /values?readout=solubility (mole fraction)&item= O=C(O)CNC(=O)C(=O)NCC(=O)O
Result: 0.000892

====

conditions: in DMSO, 333.15 K
Observation Type: solubility (mole fraction)
Would you mind answering with just the numeric figure?

Q: GET /values?readout=solubility (mole fraction)&item= O=C(O)CNC(=O)C(=O)NCC(=O)O
Result: 0.136

====

settings: in THF, 328.15 K
Observation Type: solubility (mole fraction)
Would you mind answering with just the numeric figure?

Q: GET /values?readout=solubility (mole fraction)&item= O=C(O)CNC(=O)C(=O)NCC(=O)O
Result: 0.000715

====

details: in methanol, 328.15 K
Observation Type: solubility (mole fraction)
Would you mind answering with just the numeric figure?

Q: GET /values?readout=solubility (mole fraction)&item= O=C(O)CNC(=O)C(=O)NCC(=O)O
Result: 0.000997

====

conditions: in DMSO, 308.15 K
Observation Type: solubility (mole fraction)
Would you mind answering with just the numeric figure?

Q: GET /values?readout=solubility (mole fraction)&item= O=C(O)CNC(=O)C(=O)NCC(=O)O
Result: 0.0879

====

details: in DMF, 333.15 K
Observation Type: solubility (mole fraction)
Would you mind answering with just the numeric figure?

Q: GET /values?readout=solubility (mole fraction)&item= O=C(O)CNC(=O)C(=O)NCC(=O)O
Result: 0.0923

====

details: in acetonitrile, 298.15 K
Observation Type: solubility (mole fraction)
Would you mind answering with just the numeric figure?

Q: GET /values?readout=solubility (mole fraction)&item= O=C(O)CNC(=O)C(=O)NCC(=O)O
Result: 3.2e-06

====

conditions: in n-butanol, 333.15 K
Observation Type: solubility (mole fraction)
Would you mind answering with just the numeric figure?

Q: GET /values?readout=solubility (mole fraction)&item= O=C(O)CNC(=O)C(=O)NCC(=O)O
Result: 0.00019

====

conditions: in n-propanol, 293.15 K
Observation Type: solubility (mole fraction)
Would you mind answering with just the numeric figure?

Q: GET /values?readout=solubility (mole fraction)&item= O=C(O)CNC(=O)C(=O)NCC(=O)O
Result: 5.9e-06

====

settings: in acetonitrile, 333.15 K
Observation Type: solubility (mole fraction)
Would you mind answering with just the numeric figure?

Q: GET /values?readout=solubility (mole fraction)&item= O=C(O)CNC(=O)C(=O)NCC(=O)O
Result: 4.71e-05

====

conditions: in ethyl acetate, 303.15 K
Observation Type: solubility (mole fraction)
Would you mind answering with just the numeric figure?

Q: GET /values?readout=solubility (mole fraction)&item= O=C(O)CNC(=O)C(=O)NCC(=O)O
Result: 7.8e-06

====

details: in DMSO, 328.15 K
Observation Type: solubility (mole fraction)
Would you mind answering with just the numeric figure?

Q: GET /values?readout=solubility (mole fraction)&item= O=C(O)CNC(=O)C(=O)NCC(=O)O
Result: 0.124

====

conditions: in n-propanol, 303.15 K
Observation Type: solubility (mole fraction)
Would you mind answering with just the numeric figure?

Q: GET /values?readout=solubility (mole fraction)&item= O=C(O)CNC(=O)C(=O)NCC(=O)O
Result: 1.3e-05

====

conditions: in water, 323.15 K
Observation Type: solubility (mole fraction)
Would you mind answering with just the numeric figure?

Q: GET /values?readout=solubility (mole fraction)&item= O=C(O)CNC(=O)C(=O)NCC(=O)O
Result: 0.000816

====

conditions: in ethyl acetate, 318.15 K
Observation Type: solubility (mole fraction)

Q: GET /values?readout=solubility (mole fraction)&item= O=C(O)CNC(=O)C(=O)NCC(=O)O
Result: 1.81e-05

====

conditions: in water, 313.15 K
Observation Type: solubility (mole fraction)
Would you mind answering with just the numeric figure?

Q: GET /values?readout=solubility (mole fraction)&item= O=C(O)CNC(=O)C(=O)NCC(=O)O
Result: 0.00048

====

details: in water, 303.15 K
Observation Type: solubility (mole fraction)

Q: GET /values?readout=solubility (mole fraction)&item= O=C(O)CNC(=O)C(=O)NCC(=O)O
Result: 0.000267

====

conditions: in acetonitrile, 308.15 K
Observation Type: solubility (mole fraction)
Would you mind answering with just the numeric figure?

Q: GET /values?readout=solubility (mole fraction)&item= O=C(O)CNC(=O)C(=O)NCC(=O)O
Result: 9.2e-06

====

settings: in isopropanol, 328.15 K
Observation Type: solubility (mole fraction)

Q: GET /values?readout=solubility (mole fraction)&item= O=C(O)CNC(=O)C(=O)NCC(=O)O
Result: 0.000246

====

settings: in water, 333.15 K
Observation Type: solubility (mole fraction)

Q: GET /values?readout=solubility (mole fraction)&item= O=C(O)CNC(=O)C(=O)NCC(=O)O
Result: 0.00136

====

conditions: in n-butanol, 298.15 K
Observation Type: solubility (mole fraction)
Would you mind answering with just the numeric figure?

Q: GET /values?readout=solubility (mole fraction)&item= O=C(O)CNC(=O)C(=O)NCC(=O)O
Result: 5.3e-06

====

conditions: in ethanol, 313.15 K
Observation Type: solubility (mole fraction)

Q: GET /values?readout=solubility (mole fraction)&item= O=C(O)CNC(=O)C(=O)NCC(=O)O
Result: 0.000155

====

details: in ethyl acetate, 328.15 K
Observation Type: solubility (mole fraction)

Q: GET /values?readout=solubility (mole fraction)&item= O=C(O)CNC(=O)C(=O)NCC(=O)O
Result: 2.76e-05

====

conditions: in DMF, 318.15 K
Observation Type: solubility (mole fraction)
Would you mind answering with just the numeric figure?

Q: GET /values?readout=solubility (mole fraction)&item= O=C(O)CNC(=O)C(=O)NCC(=O)O
Result: 0.082

====

conditions: in methanol, 313.15 K
Observation Type: solubility (mole fraction)
Would you mind answering with just the numeric figure?

Q: GET /values?readout=solubility (mole fraction)&item= O=C(O)CNC(=O)C(=O)NCC(=O)O
Result: 0.000527

====

settings: in THF, 318.15 K
Observation Type: solubility (mole fraction)

Q: GET /values?readout=solubility (mole fraction)&item= O=C(O)CNC(=O)C(=O)NCC(=O)O
Result: 0.000354

====

details: in isopropanol, 313.15 K
Observation Type: solubility (mole fraction)
Would you mind answering with just the numeric figure?

Q: GET /values?readout=solubility (mole fraction)&item= O=C(O)CNC(=O)C(=O)NCC(=O)O
Result: 7.77e-05

====

details: in n-propanol, 298.15 K
Observation Type: solubility (mole fraction)
Would you mind answering with just the numeric figure?

Q: GET /values?readout=solubility (mole fraction)&item= O=C(O)CNC(=O)C(=O)NCC(=O)O
Result: 8.2e-06

====

settings: in acetonitrile, 313.15 K
Observation Type: solubility (mole fraction)
Would you mind answering with just the numeric figure?

Q: GET /values?readout=solubility (mole fraction)&item= O=C(O)CNC(=O)C(=O)NCC(=O)O
Result: 1.41e-05

====

settings: in isopropanol, 303.15 K
Observation Type: solubility (mole fraction)
Would you mind answering with just the numeric figure?

Q: GET /values?readout=solubility (mole fraction)&item= O=C(O)CNC(=O)C(=O)NCC(=O)O
Result: 2.59e-05

====

details: in ethanol, 333.15 K
Observation Type: solubility (mole fraction)
Would you mind answering with just the numeric figure?

Q: GET /values?readout=solubility (mole fraction)&item= O=C(O)CNC(=O)C(=O)NCC(=O)O
Result: 0.0005

====

details: in ethanol, 303.15 K
Observation Type: solubility (mole fraction)
Would you mind answering with just the numeric figure?

Q: GET /values?readout=solubility (mole fraction)&item= O=C(O)CNC(=O)C(=O)NCC(=O)O
Result: 6.27e-05

====

settings: in THF, 303.15 K
Observation Type: solubility (mole fraction)
Would you mind answering with just the numeric figure?

Q: GET /values?readout=solubility (mole fraction)&item= O=C(O)CNC(=O)C(=O)NCC(=O)O
Result: 4.17e-05

====

settings: in isopropanol, 308.15 K
Observation Type: solubility (mole fraction)

Q: GET /values?readout=solubility (mole fraction)&item= O=C(O)CNC(=O)C(=O)NCC(=O)O
Result: 4.71e-05
